Reported pIC50 is given for each of the following compounds.
- Tested on: HT-29 cells
- protocol details: CellTiter-Glo luminescent cell viability assay with HT-29 cells (72h incubation)
- Assay type: cell-based, human
- setup conditions: Homo sapiens, HT-29, HT29 cells, read-out: CTG HT29
pIC50: −log10 of the molar value.

compound	pIC50
Cc1ccc2cc1CNC(=O)C(c1cnn(C)c1)NC(=O)CCC(=O)N1CCCC(CCO2)C1 (centres unmarked) [Compound 116]	6.30 to 7.00
CC(=O)N[C@H]1CCC(=O)N2CC3CC(Oc4ccc(C)c(c4)CNC(=O)[C@H](CCc4ccccc4)NC1=O)C3C2 (some centres unmarked) [Compound 299]	6.30 to 7.00
Cc1ccc2cc1CNC(=O)[C@H](CCc1ccccc1)NC(=O)[C@@H](Nc1ncccn1)CC(=O)N1CCCC(CCO2)C1 (some centres unmarked) [Compound 34]	> 7.00
Cc1ccc2cc1CNC(=O)[C@H](CCc1ccccc1)NC(=O)[C@@H](Nc1ccccn1)CC(=O)N1CCCC(CCO2)C1 (some centres unmarked) [Compound 36]	6.30 to 7.00
Cc1ccc2cc1CNC(=O)C(c1cnn(C)c1)NC(=O)[C@@H](NC(=O)C1CCCc3ccccc31)CC(=O)N1CCCC(CCO2)C1 (some centres unmarked) [Compound 360]	> 7.00
Cc1ccc2cc1CNC(=O)[C@H](CCc1ccccc1)NC(=O)[C@@H](NC(=O)Cc1cc(Cl)c(N)c(Cl)c1)CC(=O)N1CCCC(CCO2)C1 (some centres unmarked) [Compound 320]	> 7.00
Cc1ccc2cc1CNC(=O)[C@H](CCc1ccccc1)NC(=O)[C@@H](NC(=O)C(C)c1ccc(N)cc1)CC(=O)N1CCCC(CCO2)C1 (some centres unmarked) [Compound 309]	> 7.00
Cc1ccc2cc1CNC(=O)[C@H](CCc1ccccc1)NC(=O)[C@@H](NC(=O)OCC1(C)COC1)CC(=O)N1CCCC(CCO2)C1 (some centres unmarked) [Compound 293]	> 7.00
Cc1ccc2cc1CNC(=O)[C@H](CCc1ccccc1)NC(=O)[C@@H](NC(=O)c1ncccn1)CC(=O)N1CCCC(CCO2)C1 (some centres unmarked) [Compound 32]	> 7.00
Cc1ccc2cc1CNC(=O)[C@H](CCc1ccccc1)NC(=O)[C@@H](NC(=O)C1(N)CCOC1)CC(=O)N1CCCC(CCO2)C1 (some centres unmarked) [Compound 159]	> 7.00
Cc1ccc2cc1CNC(=O)[C@H](CCc1ccccc1)NC(=O)[C@@H](NC(=O)Cc1nc(-c3ccncc3)n[nH]1)CC(=O)N1CCCC(CCO2)C1 (some centres unmarked) [Compound 329]	> 7.00
